- tested on: biotin-labeled human IL1RAP (human) (UniProt Q9NPH3)
- Sequence (Q9NPH3 21-367 limits assumed): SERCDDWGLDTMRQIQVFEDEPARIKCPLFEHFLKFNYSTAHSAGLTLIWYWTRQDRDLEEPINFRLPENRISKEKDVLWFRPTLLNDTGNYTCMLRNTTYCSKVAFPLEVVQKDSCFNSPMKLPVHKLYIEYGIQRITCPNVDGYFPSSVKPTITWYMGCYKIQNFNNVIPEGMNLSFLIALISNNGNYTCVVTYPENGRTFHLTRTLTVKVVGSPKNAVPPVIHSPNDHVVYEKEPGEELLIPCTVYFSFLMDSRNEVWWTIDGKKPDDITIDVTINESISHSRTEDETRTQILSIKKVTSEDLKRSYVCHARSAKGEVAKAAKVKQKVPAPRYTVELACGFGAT
- experiment description: competition ELISA; competitor: capture mAb001 coated; biotin-hIL1RAP
Measured % inhibition accompanies every entry in the list below.
A number alone suffices; assume %.

Past entries and their recorded results:
binder	result value
murine mAb001 (antibody, V domains shown) VH: QVQLQQPGAELVRPGSSVKLSCKASGYTFTSYWMDWVKQRPGQGLEWIGNIYPSDSKTHYNQKFKDKATLTVDKSSSTAYMQLSSLTSEDSAVYYCARDYYGSIGMDYWGQGTSVTVSS VL: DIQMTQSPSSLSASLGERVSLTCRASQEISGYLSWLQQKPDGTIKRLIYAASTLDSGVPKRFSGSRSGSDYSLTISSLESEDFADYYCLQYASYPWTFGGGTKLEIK	93
murine mAb016 (antibody, V domains shown) VH: QVQLQQPGAELVRPGSSVKLSCKASGYTFTSYWMDWVKQRPGQGLEWIGNIYPSDSATHYNQKFKDKATLTIDKSSSTAYMQLSSLTSEDSAVYYCARDYYGSIGMDSWGQGTSVTVSS VL: DIQMTQSPSSLSASLGERVSLTCRASQEISDYLSWLQQKPDGTIKRLIYAASTLDSGVPKRFSGSRSGSDYSLTISSLESEDFADYYCLQYASFPWTFGGGTKLEIK	95
murine mAb048 (antibody, V domains shown) VH: QVQLQQPGADLVKPGASVKLSCKAYGYTFFSYWMHWVRQRPGQGLEWIGMIHPNSGTTNNNEKFKSKATLTVDKSFSTAYMQLSSLTSEDSAVYYCARGYSNYDFDYWGQGTILTVSS VL: DIKMTQFPSSMYASLGERVTITCKASQDINTYLIWIQQKPGKSPKTLIYRANRLADGVPSRFSGSGSGQDSSLTISSLEHEDMGIYYCLQYDEFPYTFGGGTKLEIK	95

Okay, now this binder:
Item: murine mAb117 (antibody, V domains shown) VH: QAYLQQSGAELVRPGASVKMSCKASGYTFTSYNMHWVKQSPRQGLEWVGVFYLGNGDTSYNEKFKGKATLTVDKSSSTAYMQLSSLTSEDSAVYFCARPGGYANWYFDVWGTGTTVTVSS VL: DIVMTQSQKFMSTSVGDWVSVTCKASQNVGTEVSWYQQKPGQSPNTLIYSASYRHSGVPDRFTGSGSGTEFTLTITNVQSEDLADYFCQQYNSFPLTFGAGTKLDLK | % inhibition: 93
